- measured_on: factor Xa (Homo sapiens, UniProt P00742)
- Sequence (P00742 235-488 limits assumed): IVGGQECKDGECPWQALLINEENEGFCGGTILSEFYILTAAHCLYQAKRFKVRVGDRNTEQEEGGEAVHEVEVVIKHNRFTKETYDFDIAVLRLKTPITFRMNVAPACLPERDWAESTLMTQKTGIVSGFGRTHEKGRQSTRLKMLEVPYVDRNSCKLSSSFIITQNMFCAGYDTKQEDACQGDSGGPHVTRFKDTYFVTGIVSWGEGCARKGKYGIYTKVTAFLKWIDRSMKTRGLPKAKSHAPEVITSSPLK
- Sequence (P00742 41-179 limits assumed): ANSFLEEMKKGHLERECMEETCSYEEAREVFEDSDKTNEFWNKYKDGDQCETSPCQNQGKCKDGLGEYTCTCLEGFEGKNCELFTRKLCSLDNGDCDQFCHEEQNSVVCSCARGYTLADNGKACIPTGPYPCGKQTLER
- assay_info: Fluorogenic enzyme assay (Example 5)
- Assay type: biochemical
- study_conditions: Table 7
Threshold check on Km: at or above 100 µM gives Fulfilled, strictly below gives Not fulfilled.

These recorded examples may help you get a feel for the data.
> print(dat)
                              line.notation                               measured.on     class.name
1  Br.N=C(N)NCCC[C@H](NC(=O)OCc1ccccc1)C(=O)Nc1ccc2c(S(=O)(=O)NCc3ccccc3)cccc2c1  factor Xa (Homo sapiens, UniProt P00742)      Fulfilled
2  Br.CNS(=O)(=O)c1cccc2cc(NC(=O)[C@H](CCCNC(=N)N)NC(=O)OCc3ccccc3)ccc12  factor Xa (Homo sapiens, UniProt P00742)      Fulfilled
3  Br.CCCCCNS(=O)(=O)c1cccc2cc(NC(=O)[C@H](CCCNC(=N)N)NC(=O)OCc3ccccc3)ccc12  factor Xa (Homo sapiens, UniProt P00742)  Not fulfilled
4  Br.CCCNS(=O)(=O)c1cccc2cc(NC(=O)[C@H](CCCNC(=N)N)NC(=O)OCc3ccccc3)ccc12  factor Xa (Homo sapiens, UniProt P00742)      Fulfilled
5  Br.CN(C)S(=O)(=O)c1cccc2cc(NC(=O)[C@H](CCCNC(=N)N)NC(=O)OCc3ccccc3)ccc12  factor Xa (Homo sapiens, UniProt P00742)  Not fulfilled
6  Br.CC(C)(C)NS(=O)(=O)c1cccc2cc(NC(=O)[C@H](CCCNC(=N)N)NC(=O)OCc3ccccc3)ccc12  factor Xa (Homo sapiens, UniProt P00742)      Fulfilled
7  Br.N=C(N)NCCC[C@H](NC(=O)OCc1ccccc1)C(=O)Nc1ccc2c(S(=O)(=O)NC3CCCCC3)cccc2c1  factor Xa (Homo sapiens, UniProt P00742)  Not fulfilled

Here's the next entry for you.
Incoming: # bool: Km of `Br.CCN(CC)S(=O)(=O)c1cccc2cc(NC(=O)[C@H](CCCNC(=N)N)NC(=O)OCc3ccccc3)ccc12` >= 100 µM
Outgoing: Fulfilled

* * *

Quick reference for Time (min) for 10% hydrolysis, Plm among some molecules
- measured_on: plasmin (Plm) (Homo sapiens, UniProt P00747)
- Sequence (P00747 581-810 limits assumed, species assumed): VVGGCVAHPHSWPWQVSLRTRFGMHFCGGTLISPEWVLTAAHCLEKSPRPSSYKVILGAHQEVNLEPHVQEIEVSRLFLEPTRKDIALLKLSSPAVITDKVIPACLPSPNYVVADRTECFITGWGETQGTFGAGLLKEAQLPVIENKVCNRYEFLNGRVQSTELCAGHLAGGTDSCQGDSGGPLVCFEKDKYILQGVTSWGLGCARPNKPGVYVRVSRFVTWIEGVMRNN
- Sequence (P00747 97-580 limits assumed, species assumed): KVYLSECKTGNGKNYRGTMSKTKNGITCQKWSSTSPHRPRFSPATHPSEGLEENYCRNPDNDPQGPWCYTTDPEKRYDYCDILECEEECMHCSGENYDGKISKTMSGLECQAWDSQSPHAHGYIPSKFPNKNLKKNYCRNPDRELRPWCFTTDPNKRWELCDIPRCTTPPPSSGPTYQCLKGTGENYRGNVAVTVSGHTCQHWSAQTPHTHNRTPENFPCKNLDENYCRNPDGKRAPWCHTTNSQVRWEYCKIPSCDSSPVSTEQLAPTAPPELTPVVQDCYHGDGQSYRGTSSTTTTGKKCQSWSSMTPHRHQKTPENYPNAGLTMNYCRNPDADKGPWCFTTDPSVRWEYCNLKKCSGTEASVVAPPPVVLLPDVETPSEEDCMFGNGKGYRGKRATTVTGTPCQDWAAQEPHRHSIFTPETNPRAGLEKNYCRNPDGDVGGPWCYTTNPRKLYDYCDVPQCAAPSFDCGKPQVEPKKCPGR
- assay_info: Fluorogenic enzyme assay (Example 5)
- Format: biochemical
- study_conditions: enzyme 100 nM, substrate 1 μM
Give just the number in min; leave the unit off.

> print(dat)
                              line.notation  number
1  Br.N=C(N)NCCC[C@H](NC(=O)OCc1ccccc1)C(=O)Nc1ccc2c(S(=O)(=O)NC3CCCCC3)cccc2c1    1140
2  Br.CCCCCNS(=O)(=O)c1cccc2cc(NC(=O)[C@H](CCCNC(=N)N)NC(=O)OCc3ccccc3)ccc12     510
3  Br.N=C(N)NCCC[C@H](NC(=O)OCc1ccccc1)C(=O)Nc1ccc2c(S(=O)(=O)NCc3ccccc3)cccc2c1     330

Incoming: Time (min) for 10% hydrolysis, Plm for `Br.CN(C)S(=O)(=O)c1cccc2cc(NC(=O)[C@H](CCCNC(=N)N)NC(=O)OCc3ccccc3)ccc12` ?
Outgoing: 1140

* * *

- assay_info: Fluorescence of 6-amino-1-naphthalenesulfonamides and substrates
- Type: physicochemical
- study_conditions: free fluorophore
test_readout: Emission Maxima (nm)
Give just the number in nm; leave the unit off.

> print(dat)
                                   compound     test.readout  number
1  CCN(CC)S(=O)(=O)c1cccc2cc(N)ccc12 [ANSNR1 R2; C2 H5; C2 H5]  Emission Maxima     470

Incoming: Emission Maxima for Nc1ccc2c(S(=O)(=O)N3CCCCC3)cccc2c1 [ANSNR1 R2; (CH2)5] ?
Outgoing: 473

Incoming: Emission Maxima for CCCCCNS(=O)(=O)c1cccc2cc(N)ccc12 [ANSNR1 R2; H; C5 H11] ?
Outgoing: 469

Incoming: Emission Maxima for CC(C)CNS(=O)(=O)c1cccc2cc(N)ccc12 [ANSNR1 R2; H; i-C4 H9] ?
Outgoing: 468

Incoming: Emission Maxima for CC(C)NS(=O)(=O)c1cccc2cc(N)ccc12 [ANSNR1 R2; H; i-C3 H7] ?
Outgoing: 468

Incoming: Emission Maxima for Nc1ccc2c(S(=O)(=O)N3CCCCCC3)cccc2c1 [ANSNR1 R2; (CH2)6] ?
Outgoing: 469

* * *

- measured_on: activated protein C (APC) (Homo sapiens)
- Sequence (P04070 212-461 limits assumed): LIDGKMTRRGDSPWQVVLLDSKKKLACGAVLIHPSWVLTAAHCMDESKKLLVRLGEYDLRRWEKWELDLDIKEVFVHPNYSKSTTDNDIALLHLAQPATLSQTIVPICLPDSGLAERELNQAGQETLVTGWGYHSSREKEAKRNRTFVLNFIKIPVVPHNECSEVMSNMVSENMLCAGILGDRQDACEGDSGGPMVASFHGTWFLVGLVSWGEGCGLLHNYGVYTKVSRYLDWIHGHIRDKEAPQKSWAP
- Sequence (P04070 43-197 limits assumed): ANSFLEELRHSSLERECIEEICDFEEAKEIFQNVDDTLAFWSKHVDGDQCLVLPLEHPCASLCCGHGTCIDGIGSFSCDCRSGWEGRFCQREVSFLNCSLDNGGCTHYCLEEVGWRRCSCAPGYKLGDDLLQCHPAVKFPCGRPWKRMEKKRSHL
- assay_info: Fluorogenic enzyme assay (Example 5)
- Type: biochemical
- study_conditions: Table 9
- Protocol: Enzyme assays (except factor VIIa assays, see below) were conducted in 20 mM Tris, 150 mM NaCl, pH 7.4 (TBS) at room temperature (22° C.). The final volume for all reaction mixtures was 2.0 ml. […] Enzyme was added to mixtures containing buffer components and substrate and the initial rate of substrate hydrolysis was measured as the change in fluorescent intensity over time, corresponding to the generation of the particular 6-amino-1-naphthalenesulfonamide fluorophore from the provided substrate. […]
test_readout: kcat /Km, APC (M⁻¹ s⁻¹)
Give just the number in M⁻¹ s⁻¹; leave the unit off.

compound	units_label	number
CCCNS(=O)(=O)c1cccc2cc(NC(=O)[C@H](CCCNC(=N)N)NC(=O)[C@H](Cc3ccccc3)NC(=O)[C@@H]3CCCN3)ccc12.Cl.Cl [PFR-ANSNHC3 H7]	M⁻¹ s⁻¹	19600
CC(C)C[C@@H](NC(=O)OCc1ccccc1)C(=O)N1CCC[C@H]1C(=O)N[C@@H](CCCNC(=N)N)C(=O)Nc1ccc2c(S(=O)(=O)N3CCCCC3)cccc2c1 [ZD-LPR-ANSN(CH2)5]	M⁻¹ s⁻¹	28900
Br.Br.CC(C)C[C@@H](N)C(=O)N1CCC[C@H]1C(=O)N[C@@H](CCCNC(=N)N)C(=O)Nc1ccc2c(S(=O)(=O)N3CCCCC3)cccc2c1 [D-LPR-ANSN(CH2)5]	M⁻¹ s⁻¹	6880
Br.Br.Br.N=C(N)NCCC[C@H](NC(=O)CNC(=O)CN)C(=O)N[C@@H](CCCNC(=N)N)C(=O)Nc1ccc2c(S(=O)(=O)NC3CCCCC3)cccc2c1 [GGRR-ANSNH(cyclo-C6 H11)]	M⁻¹ s⁻¹	11600
Cc1ccc(S(=O)(=O)NCC(=O)N2CCC[C@H]2C(=O)N[C@@H](CCCNC(=N)N)C(=O)Nc2ccc3c(S(=O)(=O)NCC(C)C)cccc3c2)cc1 [TosGPR-ANSNH(i-C4 H9)]	M⁻¹ s⁻¹	150000

Incoming: kcat /Km, APC for N=C(N)NCCC[C@H](NC(=O)CNC(=O)CNC(=O)OCc1ccccc1)C(=O)N[C@@H](CCCNC(=N)N)C(=O)Nc1ccc2c(S(=O)(=O)NC3CCCCC3)cccc2c1 [ZGGRR-ANSNH(cyclo-C6 H11)] ?
Outgoing: 19300

* * *

Quick reference for Km among some molecules
- measured_on: factor Xa (Homo sapiens, UniProt P00742)
- assay_info: Fluorogenic enzyme assay (Example 5)
- Type: biochemical
- study_conditions: Table 7
Give just the number in µM; leave the unit off.

Some molecules with recorded Km:
> print(dat)
                                   molecule  units.label  number
1  Br.CC(C)CNS(=O)(=O)c1cccc2cc(NC(=O)[C@H](CCCNC(=N)N)NC(=O)OCc3ccccc3)ccc12 [(N^α -Z)ArgANSNR1 R2; H; i-C4 H9]           µM    86.5
2  Br.N=C(N)NCCC[C@H](NC(=O)OCc1ccccc1)C(=O)Nc1ccc2c(S(=O)(=O)N3CCCCCC3)cccc2c1 [(N^α -Z)ArgANSNR1 R2; (CH2)6]           µM     427

Incoming: Km for Br.N=C(N)NCCC[C@H](NC(=O)OCc1ccccc1)C(=O)Nc1ccc2c(S(=O)(=O)N3CCOCC3)cccc2c1 [(N^α -Z)ArgANSNR1 R2; morpholyl] ?
Outgoing: 80

* * *

Quick reference for Km among some compounds
- measured_on: thrombin (IIa) (Homo sapiens)
- Construct: 0.5 nM human thrombin (IIa)
- assay_info: Fluorogenic enzyme assay (Example 5)
- Assay type: biochemical
- study_conditions: Table 9
Give just the number in µM; leave the unit off.

compound	test_readout	units_label	number
CCCNS(=O)(=O)c1cccc2cc(NC(=O)[C@H](CCCNC(=N)N)NC(=O)[C@H](Cc3ccccc3)NC(=O)[C@@H]3CCCN3C(=O)OC(C)(C)C)ccc12 [BocPFR-ANSNHC3 H7]	Km	µM	44.4
Br.Br.CC(C)C[C@@H](N)C(=O)N1CCC[C@H]1C(=O)N[C@@H](CCCNC(=N)N)C(=O)Nc1ccc2c(S(=O)(=O)N3CCCCC3)cccc2c1 [D-LPR-ANSN(CH2)5]	Km	µM	7.7

Incoming: Form entry - test system: thrombin (IIa) (Homo sapiens); read-out: Km; compound: CC(C)C[C@@H](NC(=O)OCc1ccccc1)C(=O)N1CCC[C@H]1C(=O)N[C@@H](CCCNC(=N)N)C(=O)Nc1ccc2c(S(=O)(=O)N3CCCCC3)cccc2c1 [ZD-LPR-ANSN(CH2)5]
Outgoing: 4.2

Incoming: Form entry - test system: thrombin (IIa) (Homo sapiens); read-out: Km; compound: CCN(CC)S(=O)(=O)c1cccc2cc(NC(=O)[C@H](CCCNC(=N)N)NC(=O)CNC(=O)[C@@H](CC(C)C)NS(C)(=O)=O)ccc12 [MesD-LPR-ANSN(C2 H5)2]
Outgoing: 31.6

Incoming: Form entry - test system: thrombin (IIa) (Homo sapiens); read-out: Km; compound: Cc1ccc(S(=O)(=O)NCC(=O)N2CCC[C@H]2C(=O)N[C@@H](CCCNC(=N)N)C(=O)Nc2ccc3c(S(=O)(=O)NCC(C)C)cccc3c2)cc1 [TosGPR-ANSNH(i-C4 H9)]
Outgoing: 11

Incoming: Form entry - test system: thrombin (IIa) (Homo sapiens); read-out: Km; compound: CCCNS(=O)(=O)c1cccc2cc(NC(=O)[C@H](CCCNC(=N)N)NC(=O)[C@H](Cc3ccccc3)NC(=O)[C@@H]3CCCN3)ccc12.Cl.Cl [PFR-ANSNHC3 H7]
Outgoing: 600
